- target_entity: CRBN (Homo sapiens, UniProt Q96SW2)
- Construct: endogenous in cells; host or cells: primary human T cells / CD8+ T cells from peripheral blood
- Sequence (Q96SW2 whole entry): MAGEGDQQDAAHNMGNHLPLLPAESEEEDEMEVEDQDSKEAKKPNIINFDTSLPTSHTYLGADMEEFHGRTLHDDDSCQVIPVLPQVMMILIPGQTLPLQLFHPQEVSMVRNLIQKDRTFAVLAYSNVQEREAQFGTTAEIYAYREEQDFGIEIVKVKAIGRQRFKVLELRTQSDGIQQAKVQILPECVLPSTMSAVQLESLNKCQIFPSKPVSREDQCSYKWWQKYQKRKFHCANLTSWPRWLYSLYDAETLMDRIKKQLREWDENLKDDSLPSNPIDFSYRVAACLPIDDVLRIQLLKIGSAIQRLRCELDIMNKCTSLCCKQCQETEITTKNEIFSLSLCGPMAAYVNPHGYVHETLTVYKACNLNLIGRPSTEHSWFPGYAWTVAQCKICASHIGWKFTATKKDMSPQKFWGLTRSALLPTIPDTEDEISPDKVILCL
- protocol_notes: Western blot for expression of CRBN relative to vinculin in human T cells (CRBN degradation)
- Assay type: cell-based
- condition_info: 24 h, 10nM; human T cells, 24 hours; read-out: Relative Density of CRBN (% of DMSO)
result_type: remaining activity at 0.01 µM (%)

[a] O=C1CCC(N2Cc3c(CCCOCCOCCCc4cccc5c4CN(C4CCC(=O)NC4=O)C5=O)cccc3C2=O)C(=O)N1 (stereo not shown)
[b] O=C1CC[C@H](N2Cc3c(C#CCOCCOCC#Cc4cccc5c4CN([C@H]4CCC(=O)NC4=O)C5=O)cccc3C2=O)C(=O)N1
[c] O=C1CCC(N2Cc3c(NC(=O)CCCc4cn(CC(=O)Nc5cccc6c5C(=O)N(C5CCC(=O)NC5=O)C6=O)nn4)cccc3C2=O)C(=O)N1 (stereo not shown)
[d] O=C1CCC(N2Cc3c(CCCOCCOCCOCCCc4cccc5c4CN(C4CCC(=O)NC4=O)C5=O)cccc3C2=O)C(=O)N1 (stereo not shown)
Query string: rank_up(items): orders items by reported remaining activity at 0.01 µM in ascending numerical order. Answer by naming the labels in the order asked.
Result string: b, a, d, c
(b: 11.8%, a: 21%, d: 53.6%, c: 255%)

###

- target_entity: CRBN (Homo sapiens)
- Construct: endogenous in cells; host or cells: primary human T cells / CD8+ T cells from peripheral blood
- protocol_notes: Western blot for expression of CRBN relative to vinculin in human T cells (CRBN degradation)
- Type: cell-based
- condition_info: 10uM; read-out: Relative Density of CRBN (% of DMSO)
result_type: remaining activity at 10 µM (%)

Answered examples (3):
molecule="O=C1CCC(N2Cc3c(CCCCCCCCCCc4cccc5c4CN(C4CCC(=O)NC4=O)C5=O)cccc3C2=O)C(=O)N1 (stereo not shown) [EC2-093]" unit_string=% reported=13.3
molecule="O=C1CCC(N2Cc3c(NC(=O)CCCc4cn(CC(=O)Nc5cccc6c5C(=O)N(C5CCC(=O)NC5=O)C6=O)nn4)cccc3C2=O)C(=O)N1 (stereo not shown) [XS01-122]" unit_string=% reported=151
molecule="O=C1CCC(N2Cc3c(NC(=O)CCCCCCC(=O)Nc4cccc5c4CN(C4CCC(=O)NC4=O)C5=O)cccc3C2=O)C(=O)N1 (stereo not shown) [EC1-150]" unit_string=% reported=6.33

[P] O=C1CCC(N2C(=O)c3cccc(NC(=O)CCCCCCCC(=O)Nc4cccc5c4C(=O)N(C4CCC(=O)NC4=O)C5=O)c3C2=O)C(=O)N1 (stereo not shown)
[Q] O=C1CCC(N2Cc3c(NC(=O)CCc4cn(CC(=O)Nc5cccc6c5CN(C5CCC(=O)NC5=O)C6=O)nn4)cccc3C2=O)C(=O)N1 (stereo not shown) [XS01-113]
Query string: Problem: Given the entries P and Q , determine which has the lower reported remaining activity at 10 µM. I would appreciate it if you answered with the label of your choice.
Result string: P
(P: 6.19%, Q: 106%)

###

- target_entity: CRBN (Homo sapiens)
- Construct: endogenous in cells; host or cells: primary human T cells / CD8+ T cells from peripheral blood
- protocol_notes: Western blot for expression of CRBN relative to vinculin in human T cells (CRBN degradation)
- Type: cell-based
- condition_info: 10uM; read-out: Relative Density of CRBN (% of DMSO)
result_type: remaining activity at 10 µM (%)

compound="O=C(CCc1cccc2c1CN(C1CCC(=O)NC1=O)C2=O)NCCOCCOCCNC(=O)CCc1cccc2c1CN(C1CCC(=O)NC1=O)C2=O (centres unmarked)" reported=91.1

[A] Cc1nc2cccc(NC(=O)CCCCCC(=O)Nc3cccc4nc(C)n(C5CCC(=O)NC5=O)c(=O)c34)c2c(=O)n1C1CCC(=O)NC1=O (centres unmarked)
[B] Cc1nc2c(NC(=O)c3ccc(C(=O)Nc4cccc5c(=O)n(C6CCC(=O)NC6=O)c(C)nc45)cc3)cccc2c(=O)n1C1CCC(=O)NC1=O (centres unmarked)
Query string: Given A and B , report the one with the higher recorded remaining activity at 10 µM. I would appreciate it if you answered with the label of your choice.
Result string: B

[A] O=C(/C=C/c1cccc2c1CN(C1CCC(=O)NC1=O)C2=O)NCCOCCNC(=O)/C=C/c1cccc2c1CN(C1CCC(=O)NC1=O)C2=O (centres unmarked)
[B] O=C1CCC(N2Cc3c(CCCOCCOCCOCCOCCCc4cccc5c4CN(C4CCC(=O)NC4=O)C5=O)cccc3C2=O)C(=O)N1 (centres unmarked)
[C] O=C1CCC(N2Cc3c(NC(=O)CCCCCC(=O)Nc4cccc5c4CN(C4CCC(=O)NC4=O)C5=O)cccc3C2=O)C(=O)N1 (centres unmarked)
Query string: Could you please order the items by remaining activity at 10 µM, going from the lowest number to the highest? Answer by naming the labels in the order asked.
Result string: C, B, A
(C: 7.19%, B: 19.4%, A: 85.3%)

[1] O=C1CCC(N2Cc3c(CCCOCCOCCOCCCc4cccc5c4CN(C4CCC(=O)NC4=O)C5=O)cccc3C2=O)C(=O)N1 (centres unmarked)
[2] O=C1CCC(N2Cc3c(C#CCOCCOCC#Cc4cccc5c4CN(C4CCC(=O)NC4=O)C5=O)cccc3C2=O)C(=O)N1 (centres unmarked)
[3] O=C1CCC(NC(=O)c2cccc(NC(=O)CCCC(=O)Nc3cccc(C(=O)NC4CCC(=O)NC4=O)c3)c2)C(=O)N1 (centres unmarked)
[4] Cc1nc2cccc(NC(=O)CCCCCCCC(=O)Nc3cccc4nc(C)n(C5CCC(=O)NC5=O)c(=O)c34)c2c(=O)n1C1CCC(=O)NC1=O (centres unmarked)
[5] O=C1CCC(N2Cc3c(CCCOCCCc4cccc5c4CN(C4CCC(=O)NC4=O)C5=O)cccc3C2=O)C(=O)N1 (centres unmarked)
Query string: Could you please order the items by remaining activity at 10 µM, going from the lowest number to the highest? Answer by naming the labels in the order asked.
Result string: 5, 1, 3, 4, 2

[P] Cc1nc2cccc(NC(=O)CCCCCCCCC(=O)Nc3cccc4nc(C)n(C5CCC(=O)NC5=O)c(=O)c34)c2c(=O)n1C1CCC(=O)NC1=O (centres unmarked)
[Q] O=C1CCC(N2Cc3c(NC(=O)CCCCCCCCC(=O)Nc4cccc5c4CN(C4CCC(=O)NC4=O)C5=O)cccc3C2=O)C(=O)N1 (centres unmarked)
[R] O=C(COc1cccc2c1C(=O)N(C1CCC(=O)NC1=O)C2=O)NCCOCCOCCNC(=O)COc1cccc2c1C(=O)N(C1CCC(=O)NC1=O)C2=O (centres unmarked)
Query string: Output the entries ranked by remaining activity at 10 µM from maximum down to minimum. Answer by naming the labels in the order asked.
Result string: P, Q, R
(P: 82.2%, Q: 28.2%, R: 15.8%)

[1] O=C1CCC(N2Cc3c(C#CCCCCCCCC(=O)Nc4cccc5c4CN(C4CCC(=O)NC4=O)C5=O)cccc3C2=O)C(=O)N1 (centres unmarked)
[2] O=C1CCC(N2Cc3ccc(NC(=O)CCCCC(=O)Nc4ccc5c(c4)C(=O)N(C4CCC(=O)NC4=O)C5)cc3C2=O)C(=O)N1 (centres unmarked)
[3] O=C1CCC(NC(=O)c2cccc(NC(=O)CCCCCCC(=O)Nc3cccc(C(=O)NC4CCC(=O)NC4=O)c3)c2)C(=O)N1 (centres unmarked)
Query string: Could you please order the items by remaining activity at 10 µM, going from the lowest number to the highest? Answer by naming the labels in the order asked.
Result string: 3, 1, 2

[I] O=C1CCC(N2C(=O)c3cccc(NC(=O)[C@H]4CC[C@H](C(=O)Nc5cccc6c5C(=O)N(C5CCC(=O)NC5=O)C6=O)CC4)c3C2=O)C(=O)N1 (some centres unmarked)
[II] O=C1CCC(N2Cc3c(NC(=O)CCCC(=O)Nc4cccc5c4CN(C4CCC(=O)NC4=O)C5=O)cccc3C2=O)C(=O)N1 (centres unmarked)
Query string: Problem: Given the entries I and II , determine which has the lower reported remaining activity at 10 µM. I would appreciate it if you answered with the label of your choice.
Result string: II
(II: 2.97%, I: 36.5%)

[I] O=C1CCC(N2Cc3c(NC(=O)CCCCCCCC(=O)Nc4cccc5c4CN(C4CCC(=O)NC4=O)C5=O)cccc3C2=O)C(=O)N1 (centres unmarked)
[II] O=C1CCC(N2Cc3ccc(NC(=O)CCCCCCC(=O)Nc4ccc5c(c4)C(=O)N(C4CCC(=O)NC4=O)C5)cc3C2=O)C(=O)N1 (centres unmarked)
Query string: Problem: Given the entries I and II , determine which has the lower reported remaining activity at 10 µM. I would appreciate it if you answered with the label of your choice.
Result string: II

[1] O=C1C[C@H](NC(=O)CCCCCCCCC(=O)N[C@H]2CC(=O)NC2=O)C(=O)N1
[2] O=C1CCC(N2C(=O)c3cccc(NC(=O)CCCCCCC(=O)Nc4cccc5c4C(=O)N(C4CCC(=O)NC4=O)C5=O)c3C2=O)C(=O)N1 (centres unmarked)
[3] Cc1nc2cccc(NC(=O)Cn3cc(CCC(=O)Nc4cccc5c4CN(C4CCC(=O)NC4=O)C5=O)nn3)c2c(=O)n1C1CCC(=O)NC1=O (centres unmarked)
Query string: Could you please order the items by remaining activity at 10 µM, going from the lowest number to the highest? Answer by naming the labels in the order asked.
Result string: 2, 1, 3

[1] O=C1CCC(N2C(=O)c3cccc(NC(=O)CCCCCCCCC(=O)Nc4cccc5c4C(=O)N(C4CCC(=O)NC4=O)C5=O)c3C2=O)C(=O)N1 (centres unmarked)
[2] O=C1CCC(NC(=O)CCCC(=O)NC2CCC(=O)NC2=O)C(=O)N1 (centres unmarked)
Query string: Given 1 and 2 , report the one with the higher recorded remaining activity at 10 µM. I would appreciate it if you answered with the label of your choice.
Result string: 2
